system.tested: T1, Soluble heterodimeric CD3 protein (hCD3-epsilon/hCD3-delta) with a human Fc tag (hFcΔAdp/hFc) or a mouse Fc … (human, UniProt P07766 23-126; P04234 22-105)
T1 construct: also called hCD3ε/δ; not shown: Fc tag: human (hFcΔAdp/hFc); which tag was used in Ta
run.description: SPR Biacore, 25 C, antibody-capture format
reported.endpoint: koff (s⁻¹)
Write the value in s⁻¹ as a bare number.

[[record]]
binder = "H2M2691N (antibody, V domains shown, Hybridoma antibody, human variable regions, mouse IgG2 Fc) VH: EVQLVESGGGLVQPGRSLRLSCAASGFTFDDYTMHWVRQAPGKGLEWVSGISWNSGSIGYADSVKGRFTISRDNAKKSLYLQMNSLRAEDTALYYCAKDNSGYGHYYYGMDVWGQGTTVTVAS VL: EIVMTQSPATLSVSPGERATLSCRASQSVSSNLAWYQQKPGQAPRLLIYGASTRATGIPARFSGSGSGTEFTLTISSLQSEDFAVYYCQHYINWPLTFGGGTKVEIK"
uom = "s⁻¹"
number = 0.000207


Task item: Would you mind telling me what koff value was observed for H2M2862N (antibody, V domains shown, Hybridoma antibody, human variable regions, mouse IgG2 Fc) VH: QVQLVESGGGVVQPGRSLRLSCAASGFTFRSYGMHWVRQAPGKGLEWVAMIYYDGNNKKYADSVRGRFTISRDNSKNTLYLQMNSLRVEDTAVYFCARGPGYNWLDPWGQGTLVTVSS VL: EIVMTQSPATLSVSPGERATLSCRASQSVSRNLAWYQQKPGQAPRLLIYGASTRATDIPARFSGSGSGTEFILNISSLQSEDFALYYCQQYSNWPLTFGGGTEVEIK ?
Reply: 0.003

Task item: Try H2M2708N (antibody, V domains shown, Hybridoma antibody, human variable regions, mouse IgG2 Fc) VH: QVQLVESGGGVVQPGRSLRLSCAASGFTFRSFGMHWVRQAPGRGLEWVAMIYFDGKNKYYADSVRGRFTISRDNSKNTLYLEMSSLRAEDTAVYFCARGPGYNWLDPWGQGTLVTVSS VL: EIVMTQSPATLSVSPGERVTLSCRASQSISRNLAWYQQKPGQAPRLLIYGASTRATGVPARFSGSGSGTEFTLTISSLQSEDFAVFHCQQYNNRPLTFGGGTEVEIK next.
Reply: 0.000612

Task item: Likewise for H2M2706N (antibody, V domains shown, Hybridoma antibody, human variable regions, mouse IgG2 Fc) VH: QVQLVESGGGVVQPGRSLRLSCAASGFTFRSYAMHWVRQAPGKGLEWVAMVYYDGNNQYYADSVRGRFTISRDNSKNTLYLQMNSLRADDTAVYFCARGPGYNWLDPWGQGTLVTVSS VL: EIVMTQSPATLSVSPGERATLSCRASQSVSRNLAWYQQKPGQAPRLLIYGASTRATGIPARFSGSGSGTDFTLTISSLQSEDFAVYYCQQYNNWPLTFGGGTKVVIK ?
Reply: 0.00444

Task item: Then H2M2886N (antibody, V domains shown, Hybridoma antibody, human variable regions, mouse IgG2 Fc) VH: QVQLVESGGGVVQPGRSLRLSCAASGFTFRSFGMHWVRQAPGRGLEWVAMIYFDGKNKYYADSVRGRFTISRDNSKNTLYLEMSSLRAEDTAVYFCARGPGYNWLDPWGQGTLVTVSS VL: EIVMTQSPATLSVSPGERVILSCRASQSISRNLAWYQQKPGQAPRLLIYGATTRATGVPARFSGSGSGTEFTLTISSLQSEDFAVFYCQQYNNRPLTFGGGTEVEIK ?
Reply: 0.000653
